Target or system Carbonic anhydrase 2 (Homo sapiens, UniProt P00918); recorded quantity Ki.
Answer with a number only, understood to be in nM.

Using the record for NS(=O)(=O)c1nnc(N2C(=O)c3cccnc3C2=O)s1 , report its Ki.
8

Would you mind doing NS(=O)(=O)c1ccc(N2C(=O)c3cccnc3C2=O)cc1 as well?
132

Would you mind doing NS(=O)(=O)c1cc(S(N)(=O)=O)c(N2C(=O)c3cccnc3C2=O)c(Cl)c1Cl as well?
12

Would you mind doing NS(=O)(=O)c1cc(S(N)(=O)=O)c(N2C(=O)c3cccnc3C2=O)cc1Cl as well?
9

Would you mind doing NS(=O)(=O)c1nnc(NC(=O)CCN2C(=O)c3cccnc3C2=O)s1 as well?
3

Would you mind doing NS(=O)(=O)c1nc2ccc(N3C(=O)c4cccnc4C3=O)cc2s1 as well?
4

Would you mind doing NS(=O)(=O)c1cccc(N2C(=O)c3cccnc3C2=O)c1 as well?
250
